The reported numbers originate from ChEMBL document CHEMBL3608303.

# experimental system: D(3) dopamine receptor (Homo sapiens, UniProt P35462)
# Sequence (P35462 whole entry): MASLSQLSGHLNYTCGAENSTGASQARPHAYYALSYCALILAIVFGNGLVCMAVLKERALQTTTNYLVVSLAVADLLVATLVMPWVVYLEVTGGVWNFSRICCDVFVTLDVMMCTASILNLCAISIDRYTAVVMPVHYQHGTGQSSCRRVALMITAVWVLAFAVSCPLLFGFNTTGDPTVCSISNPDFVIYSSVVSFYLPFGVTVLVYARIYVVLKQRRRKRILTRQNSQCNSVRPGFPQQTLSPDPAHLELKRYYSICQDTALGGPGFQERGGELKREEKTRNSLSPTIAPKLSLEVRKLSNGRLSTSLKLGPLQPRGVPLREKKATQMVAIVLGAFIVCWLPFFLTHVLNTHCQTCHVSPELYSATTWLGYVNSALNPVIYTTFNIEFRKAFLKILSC
# assay procedure: Displacement of [3H]-spiperone from dopamine D3 receptor (unknown origin) expressed in HEK293 cell membranes incubated for 15 mins by liquid scintillation spectrometry
# Set-up: concentration or dose not given beside the values
A collection of compounds and their measured inhibition
Give your result in % as a bare value.

[[record]]
smiles_record = "Fc1ccccc1Nc1nc(N2CCNCC2)nc2ccccc12"
experimental_system = "D(3) dopamine receptor (Homo sapiens, UniProt P35462)"
value_kind = "inhibition"
value_measured = 22.5


response.value for `Fc1ccc(Nc2nc(N3CCOCC3)nc3ccccc23)cc1` (field: inhibition) = -0.57

For `COc1ccccc1Nc1nc(N2CCN(CCO)CC2)nc2ccccc12` the compound record lists inhibition as 0.9

Lab note: `CC(C)c1ccc(Nc2nc(N3CCNCC3)nc3ccccc23)cc1` gave inhibition of 22.5

* * *

// inhibition lookup, one value per entry
# experimental system: D(3) dopamine receptor (Homo sapiens, UniProt P35462)
# assay procedure: Displacement of [3H]-spiperone from dopamine D3 receptor (unknown origin) expressed in HEK293 cell membranes incubated for 15 mins by liquid scintillation spectrometry
# Set-up: concentration or dose not given beside the values
Expressed in %, but write only the number.

Some entries whose results are on file:
[[record]]
smiles_record = "Cc1ccc(Nc2nc(N3CCN(CCO)CC3)nc3ccccc23)c(C)c1"
experimental_system = "D(3) dopamine receptor (Homo sapiens, UniProt P35462)"
value_measured = 39

[[record]]
smiles_record = "OCCN1CCN(c2nc(Nc3ccccc3F)c3ccccc3n2)CC1"
experimental_system = "D(3) dopamine receptor (Homo sapiens, UniProt P35462)"
value_measured = 10.1

[[record]]
smiles_record = "Clc1ccc(Nc2nc(N3CCNCC3)nc3ccccc23)cc1"
experimental_system = "D(3) dopamine receptor (Homo sapiens, UniProt P35462)"
value_measured = 78.8

[[record]]
smiles_record = "OCCN1CCN(c2nc(Nc3ccc(F)cc3)c3ccccc3n2)CC1"
experimental_system = "D(3) dopamine receptor (Homo sapiens, UniProt P35462)"
value_measured = 49.3

[[record]]
smiles_record = "OCCN1CCN(c2nc(Nc3ccc(Cl)cc3)c3ccccc3n2)CC1"
experimental_system = "D(3) dopamine receptor (Homo sapiens, UniProt P35462)"
value_measured = 75.6


We next turn to a different compound, shown below.
Lab note: measured inhibition of `OCCN1CCN(c2nc(Nc3cccc(O)c3)c3ccccc3n2)CC1` was 11.7

* * *

# experimental system: 5-hydroxytryptamine receptor 2A (Homo sapiens, UniProt P28223)
# Sequence (P28223 whole entry): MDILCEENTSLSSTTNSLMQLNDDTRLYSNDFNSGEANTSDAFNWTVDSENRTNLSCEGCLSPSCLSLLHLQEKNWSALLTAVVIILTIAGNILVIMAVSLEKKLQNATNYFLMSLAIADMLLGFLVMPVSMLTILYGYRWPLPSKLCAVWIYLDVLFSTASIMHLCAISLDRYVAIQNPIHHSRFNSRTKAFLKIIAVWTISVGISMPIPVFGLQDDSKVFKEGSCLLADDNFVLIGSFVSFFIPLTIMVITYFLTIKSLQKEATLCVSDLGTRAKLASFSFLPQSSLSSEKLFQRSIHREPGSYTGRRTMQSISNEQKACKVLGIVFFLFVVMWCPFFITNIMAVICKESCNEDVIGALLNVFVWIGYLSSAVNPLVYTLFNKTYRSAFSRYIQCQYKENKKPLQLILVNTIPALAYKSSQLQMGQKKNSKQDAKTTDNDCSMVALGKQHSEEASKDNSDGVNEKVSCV
# assay procedure: Displacement of [3H]ketanserin hydrochloride from 5-HT2A receptor (unknown origin) expressed in HEK293 cell membranes incubated for 15 mins by liquid scintillation spectrometry relative to control
# Set-up: concentration or dose not given beside the values
inhibition reference

Illustrative cases are given below, each with its answer.
[[record]]
smiles_record = "Fc1ccccc1Nc1nc(N2CCOCC2)nc2ccccc12"
value_measured = "> 90%"

[[record]]
smiles_record = "COc1ccc(Nc2nc(N3CCN(CCO)CC3)nc3ccccc23)c(OC)c1"
value_measured = "> 90%"

[[record]]
smiles_record = "CC(C)c1ccc(Nc2nc(N(C)C)nc3ccccc23)cc1"
value_measured = "75.1%"

[[record]]
smiles_record = "Ic1ccc(Nc2nc(N3CCNCC3)nc3ccccc23)cc1"
value_measured = "> 90%"

[[record]]
smiles_record = "OCCN1CCN(c2nc(NCc3ccccc3)c3ccccc3n2)CC1"
value_measured = "> 90%"


The reported value for `Fc1ccc(Nc2nc(N3CCOCC3)nc3ccccc23)cc1` in terms of inhibition is > 90%

Record summary for `Cc1ccc(Nc2nc(N3CCN(CCO)CC3)nc3ccccc23)c(C)c1` : reported inhibition = > 90%

The molecule `CC(C)(C)[C@@]1(O)CCN2C[C@@H]3c4ccccc4CCc4cccc(c43)[C@H]2C1` showed inhibition equal to > 90%

get_value(item= `COc1ccccc1Nc1nc(N2CCN(CCO)CC2)nc2ccccc12` , readout=inhibition) returns > 90%

`CC(C)c1ccc(Nc2nc(Nc3ccc(C(C)C)cc3)c3ccccc3n2)cc1` has a reported inhibition of 5.91%

* * *

# experimental system: D(3) dopamine receptor (Homo sapiens, UniProt P35462)
# assay procedure: Displacement of [3H]-spiperone from dopamine D3 receptor (unknown origin) expressed in HEK293 cell membranes incubated for 15 mins by liquid scintillation spectrometry
# particulars: hek293
value kind: Ki

[[record]]
smiles_record = "CC(C)c1ccc(Nc2nc(Nc3ccc(C(C)C)cc3)c3ccccc3n2)cc1"
value_measured = "Not Active"

[[record]]
smiles_record = "COc1ccc(Nc2nc(N3CCN(CCO)CC3)nc3ccccc23)c(OC)c1"
value_measured = "Not Active"

[[record]]
smiles_record = "CC(C)c1ccc(Nc2nc(N(C)C)nc3ccccc23)cc1"
value_measured = "Not Active"

[[record]]
smiles_record = "Ic1ccc(Nc2nc(N3CCNCC3)nc3ccccc23)cc1"
value_measured = "Not Active"


* * *

Reported values: log10 Ki for 5-hydroxytryptamine receptor 2A (Homo sapiens, UniProt P28223), one per item.
Heads up, the numbers here are log10 of Ki in nM units.

[[record]]
smiles_record = "COc1ccccc1Nc1nc(N2CCNCC2)nc2ccccc12"
value_measured = 1.66


Record for `COc1ccc(Nc2nc(N3CCN(CCO)CC3)nc3ccccc23)cc1` under target or system 5-hydroxytryptamine receptor 2A (Homo sapiens, UniProt P28223): log10 Ki reported as 3.13

Lab note: molecule `OCCN1CCN(c2nc(Nc3ccccc3F)c3ccccc3n2)CC1` tested on 5-hydroxytryptamine receptor 2A (Homo sapiens, UniProt P28223); recorded log10 Ki was 1.82

log10 Ki for 5-hydroxytryptamine receptor 2A (Homo sapiens, UniProt P28223) with input `COc1ccc(Nc2nc(N3CCN(CCO)CC3)nc3ccccc23)c(OC)c1` equals 2.77

5-hydroxytryptamine receptor 2A (Homo sapiens, UniProt P28223) data for `Cc1ccc(Nc2nc(N3CCN(CCO)CC3)nc3ccccc23)c(C)c1` ; its log10 Ki: 2.43

Summary: `OCCN1CCN(c2nc(Nc3ccc(Cl)cc3)c3ccccc3n2)CC1` , 5-hydroxytryptamine receptor 2A (Homo sapiens, UniProt P28223), log10 Ki = 2.04

* * *

# experimental system: UniProt P28223
value kind: pIC50
Answer as the number alone; pIC50 is minus log10 of concentration in mol/L.

[[record]]
smiles_record = "OCCN1CCN(c2nc(Nc3ccc(F)cc3)c3ccccc3n2)CC1"
experimental_system = "UniProt P28223"
value_kind = "pIC50"
value_measured = 4.67

[[record]]
smiles_record = "OCCN1CCN(c2nc(Nc3ccccc3F)c3ccccc3n2)CC1"
experimental_system = "UniProt P28223"
value_kind = "pIC50"
value_measured = 5.86

[[record]]
smiles_record = "Clc1ccc(Nc2nc(N3CCNCC3)nc3ccccc23)cc1"
experimental_system = "UniProt P28223"
value_kind = "pIC50"
value_measured = 5.78


Reported pIC50 of `OCCN1CCN(c2nc(Nc3ccc(Cl)cc3)c3ccccc3n2)CC1` : 5.13

Item: `OCCN1CCN(c2nc(Nc3cccc(O)c3)c3ccccc3n2)CC1` | pIC50: 5.04

Reported pIC50 of `OCCN1CCN(c2nc(Nc3ccc(Br)cc3)c3ccccc3n2)CC1` : 4.56

* * *

# experimental system: D(1A) dopamine receptor (Homo sapiens)
# Sequence (P21728 whole entry): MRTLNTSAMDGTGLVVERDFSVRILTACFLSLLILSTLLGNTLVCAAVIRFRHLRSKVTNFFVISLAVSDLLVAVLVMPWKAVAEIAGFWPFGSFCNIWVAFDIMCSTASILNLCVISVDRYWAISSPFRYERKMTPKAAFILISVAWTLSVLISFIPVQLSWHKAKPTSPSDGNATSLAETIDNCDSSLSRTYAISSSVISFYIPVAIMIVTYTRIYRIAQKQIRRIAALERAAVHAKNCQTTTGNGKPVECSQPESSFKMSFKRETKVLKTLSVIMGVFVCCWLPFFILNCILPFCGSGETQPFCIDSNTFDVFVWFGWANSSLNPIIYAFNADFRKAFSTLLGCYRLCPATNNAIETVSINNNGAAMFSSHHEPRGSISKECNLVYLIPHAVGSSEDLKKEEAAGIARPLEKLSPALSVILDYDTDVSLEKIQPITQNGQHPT
# assay procedure: Displacement of [3H]-SCH-23390 from dopamine D1 receptor (unknown origin) expressed in HEK293 cell membranes incubated for 15 mins by liquid scintillation spectrometry
value kind: inhibition (%)
Kindly answer with a numeric value in %, unit omitted.

[[record]]
smiles_record = "CC(C)c1ccc(Nc2nc(N3CCNCC3)nc3ccccc23)cc1"
value_kind = "inhibition"
value_measured = 94.8

[[record]]
smiles_record = "Clc1ccc(Nc2nc(N3CCOCC3)nc3ccccc23)cc1"
value_kind = "inhibition"
value_measured = -9.36

[[record]]
smiles_record = "OCCN1CCN(c2nc(Nc3ccc(Cl)cc3)c3ccccc3n2)CC1"
value_kind = "inhibition"
value_measured = 80.5


Form field inhibition, entry `Clc1ccc(Nc2nc(N3CCNCC3)nc3ccccc23)cc1` : 83.9

* * *

# experimental system: 5-hydroxytryptamine receptor 2A (Homo sapiens, UniProt P28223)
Consider the following compounds and their measured Ki readings.
Hi! Could you send only the number? It should be in nM, unit omitted.

Use the examples below as a reference point.
[[record]]
smiles_record = "Fc1ccc(Nc2nc(N3CCOCC3)nc3ccccc23)cc1"
value_kind = "Ki"
value_measured = 235

[[record]]
smiles_record = "Fc1ccccc1Nc1nc(N2CCNCC2)nc2ccccc12"
value_kind = "Ki"
value_measured = 70

[[record]]
smiles_record = "Fc1ccccc1Nc1nc(N2CCOCC2)nc2ccccc12"
value_kind = "Ki"
value_measured = 184


// moving on: another record for Ki
For reference, reported Ki for `COc1ccccc1Nc1nc(N2CCN(CCO)CC2)nc2ccccc12` stands at 146
